Target: T1, human Ly6E, N-terminal gD-tagged, stably expressed on PC3 cells (human, UniProt Q16553 21-101)
T1 construct: GPI-linked protein on cells; also called hu Ly6E; human Ly6E transfected PC3 cells; not shown: N-terminal gD tag of the retroviral vector
T1 sequence: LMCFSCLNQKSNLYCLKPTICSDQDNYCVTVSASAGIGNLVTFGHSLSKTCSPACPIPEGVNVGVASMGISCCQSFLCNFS
Assay: cell-based competitive binding on human Ly6E PC3 cells; competitor mouse 9B12
The entries below come with measured IC50 values attached.
property.label: IC50 (nM)

INSERT INTO assay_data (binder, property_label, value_unit, test_value) VALUES
  ('humanized 9B12 variant v24 (antibody, V domains shown, IgG. k1 graft + 71 / VH2 graft + 24 + 37 + 49 + 73 + 76; Residue changes derived) VH: EVQLVESGPALVKPTQTLTLTCTVSGFSLTGYSVNWVRQPPGKALEWLGMIWGDGSTDYNSALKSRLTISKDNSKSQVVLTMTNMDPVDTATYYCARDYYFNYASWFAYWGQGTLVTVSS VL: DIQMTQSPSSLSASVGDRVTITCSASQGISNYLNWYQQKPGKAPKLLIYYTSNLHSGVPSRFSGSGSGTDYTLTISSLQPEDFATYYCQQYSELPWTFGQGTKVEIK', 'IC50', 'nM', 53),
  ('humanized 9B12 variant v18 (antibody, V domains shown, IgG. k1 graft 43+44+71 / VH2 graft + 24 + 49 + 73 + 76; Residue changes derived) VH: EVQLVESGPALVKPTQTLTLTCTVSGFSLTGYSVNWIRQPPGKALEWLGMIWGDGSTDYNSALKSRLTISKDNSKSQVVLTMTNMDPVDTATYYCARDYYFNYASWFAYWGQGTLVTVSS VL: DIQMTQSPSSLSASVGDRVTITCSASQGISNYLNWYQQKPGKTVKLLIYYTSNLHSGVPSRFSGSGSGTDYTLTISSLQPEDFATYYCQQYSELPWTFGQGTKVEIK', 'IC50', 'nM', 22),
  ('humanized 9B12 variant v23 (antibody, V domains shown, IgG. k1 graft + 71 / VH2 graft + 24 + 49 + 73 + 76; Residue changes derived) VH: EVQLVESGPALVKPTQTLTLTCTVSGFSLTGYSVNWIRQPPGKALEWLGMIWGDGSTDYNSALKSRLTISKDNSKSQVVLTMTNMDPVDTATYYCARDYYFNYASWFAYWGQGTLVTVSS VL: DIQMTQSPSSLSASVGDRVTITCSASQGISNYLNWYQQKPGKAPKLLIYYTSNLHSGVPSRFSGSGSGTDYTLTISSLQPEDFATYYCQQYSELPWTFGQGTKVEIK', 'IC50', 'nM', 54);
